Source listed as the antibiotic and cytotoxicity screens of Wong et al. (2023).

Tested on: HSkMC
method_summary: cytotoxicity call (relative viability < 0.9)
test_context: 10 µM
Among all 39,000 compounds or so, about 1,500 (3.8%) were called active. The sample holds actives, similar compounds and a random draw of the others, so the mix is not that of the screen.
Assign a class; possible classes are active, inactive

Here's what some known entries look like.
Req: Which outcome did this test record for the molecule C=CCN1C[C@H]2CN(C(C)C)C[C@H]2C1=O ?
Resp: inactive

Req: Which outcome did this test record for the molecule CC(=O)OC1CCC2(C)C(=CCC3C4CCC(=O)C4(C)CCC32)C1 (stereo unspecified) ?
Resp: inactive

Req: Which outcome did this test record for the molecule CCO[C@H]1[C@H]2CC[C@@H]1NC2 ?
Resp: inactive

Req: Which outcome did this test record for the molecule CN1C[C@@H](NC(=O)C2CC2)[C@H]2OCCC[C@H]21 ?
Resp: inactive

Req: Which outcome did this test record for the molecule C[C@H]1CN(C)[C@@H](C)C[C@@H]1n1[nH]c(=O)cc1N ?
Resp: inactive

// next entry
Req: Which outcome did this test record for the molecule COC(=O)NC(=S)Nc1ccccc1NC(=S)NC(=O)OC ?
Resp: active

====

Tested on: HSkMC
method_summary: cytotoxicity call (relative viability < 0.9)
test_context: 10 µM
About 1,500 (3.8%) of roughly 39,000 compounds were called active. Many of the other results were omitted from the sample, so actives are more common in it than they were.
Assign a class; possible classes are label 1 for active, label 0 for inactive

Req: Which outcome did this test record for the molecule COC(=O)[C@]1(Cc2ccccc2N=[N+]=[N-])N=C(c2ccc(OCCCO)cc2)O[C@@H]1c1ccccc1CN=[N+]=[N-] ?
Resp: label 0

Req: Which outcome did this test record for the molecule COC(=O)[C@@]1(Cc2ccccc2CN=[N+]=[N-])N=C(c2ccc(OCCCO)cc2)O[C@H]1c1ccccc1N=[N+]=[N-] ?
Resp: label 0

Req: Which outcome did this test record for the molecule COC(=O)[C@]1(Cc2ccccc2N=[N+]=[N-])N=C(c2ccc(OCCCO)cc2)O[C@@H]1c1ccccc1N=[N+]=[N-] ?
Resp: label 1

Next:
Req: Which outcome did this test record for the molecule COC(=O)[C@]1(Cc2ccccc2CN=[N+]=[N-])N=C(c2ccc(OCCCO)cc2)O[C@@H]1c1ccccc1N=[N+]=[N-] ?
Resp: label 0

Req: Which outcome did this test record for the molecule CC(C)(CN)CNc1ccc([N+](=O)[O-])c2cccnc12 ?
Resp: label 0

Req: Which outcome did this test record for the molecule COC(=O)[C@@]1(Cc2ccccc2N=[N+]=[N-])N=C(c2ccc(OCCCO)cc2)O[C@H]1c1ccccc1N=[N+]=[N-] ?
Resp: label 1

Req: Which outcome did this test record for the molecule COC(=O)[C@@]1(Cc2ccccc2N=[N+]=[N-])N=C(c2ccc(OCCCO)cc2)O[C@H]1c1ccccc1CN=[N+]=[N-] ?
Resp: label 0

====

Test system: HSkMC
method_summary: cytotoxicity call (relative viability < 0.9)
test_context: 10 µM
About 1,500 (3.8%) of roughly 39,000 compounds were called active. For the sample, actives were picked, then their nearest neighbours and some compounds at random.
Assign a class; possible classes are 1 for active, 0 for inactive

Here's what some known entries look like.
Req: Which outcome did this test record for the compound CCCCCCCCCC(=O)O[C@@H]1[C@@H](C)[C@@]2(O)[C@@H](C=C(CO)C[C@]3(O)C(=O)C(C)=C[C@@H]23)[C@@H]2C(C)(C)[C@]12OC(=O)CCCCCCCCC ?
Resp: 0

Req: Which outcome did this test record for the compound C[C@]12CCC(=O)C[C@@H]1CC[C@@H]1[C@@H]2CC[C@]2(C)C(=O)CC[C@@H]12 ?
Resp: 0

Req: Which outcome did this test record for the compound c1ccc(CN2CCNCC2)nc1 ?
Resp: 0

Req: Which outcome did this test record for the compound Cc1cccc(CN2C[C@H]3OCCN(C)[C@H]3C2)n1 ?
Resp: 0

Req: Which outcome did this test record for the compound Cn1cc([C@@H](O)c2ccccc2)[n+](C)c1 ?
Resp: 0

Req: Which outcome did this test record for the compound CI.O=C(COc1ccc(Cl)cc1Cl)OC[C@H]1CCCN2CCCC[C@@H]12 ?
Resp: 0

Req: Which outcome did this test record for the compound O=C(NC(=O)c1c(F)cccc1F)Nc1cc(Cl)c(OC(F)(F)[C@@H](F)C(F)(F)F)cc1Cl ?
Resp: 1

Req: Which outcome did this test record for the compound CC(C)(C)OC(=O)N[C@H]1[C@@H]2CNC[C@@H]21 ?
Resp: 0

Req: Which outcome did this test record for the compound C=C(C)[C@@H]1CCC(C)=C[C@H]1c1c(O)cc(CCCCC)cc1O ?
Resp: 1

Req: Which outcome did this test record for the compound O=C1C=C2C=CC3CC2(O1)C1CCCCN31 (centres undefined) ?
Resp: 0

Next:
Req: Which outcome did this test record for the compound O.O.O.O=C([O-])C1[O][Sb]2[O]C(=O)C([O]2)C(C(=O)[O-])[O][Sb]2[O]C(=O)C1[O]2.[K+].[K+] (centres undefined) ?
Resp: 0

Req: Which outcome did this test record for the compound C[C@]12CC/C(=N\OCCN)C[C@@H]1C(=O)C[C@@H]1[C@@H]2CC[C@]2(C)C(=O)CC[C@@H]12 ?
Resp: 1

Req: Which outcome did this test record for the compound COc1cc(C=O)cc(OC)c1OC ?
Resp: 0

Req: Which outcome did this test record for the compound COc1c(C[C@@H](C)O)c2c3c(C[C@@H](C)O)c(OC)c(=O)c4c(O)cc5c(c6c(cc(O)c(c1=O)c62)OCO5)c43 ?
Resp: 1

Req: Which outcome did this test record for the compound CC12CCC3C(CC=C4CC(O)CCC43C)C1CCC2=O (centres undefined) ?
Resp: 0

Req: Which outcome did this test record for the compound NC[C@@H](O)c1ccccc1 ?
Resp: 0

Req: Which outcome did this test record for the compound CCN(Cc1ccc(Cl)nc1)C(=C[N+](=O)[O-])NC ?
Resp: 0

Req: Which outcome did this test record for the compound NC1(c2ccc(Cl)cc2)CC1 ?
Resp: 0

Req: Which outcome did this test record for the compound COCCCNC(=O)[C@@]1(Cc2ccccc2CN=[N+]=[N-])N=C(c2ccc(OCCCO)cc2)O[C@H]1c1ccccc1CN=[N+]=[N-] ?
Resp: 0

Req: Which outcome did this test record for the compound Cn1ncnc2c(=O)n(C)c(=O)nc1-2 ?
Resp: 1

Req: Which outcome did this test record for the compound O=c1cccc2n1CC1CNCC2C1 (centres undefined) ?
Resp: 0

Req: Which outcome did this test record for the compound O=C1C=C2C(=CCO[C@@H]2O)O1 ?
Resp: 0

Req: Which outcome did this test record for the compound COc1cc2c(cc1OC)C1C(=O)c3ccc4c(c3OC1CO2)CC(C(C)C)O4 (centres undefined) ?
Resp: 0

Req: Which outcome did this test record for the compound CCN1C[C@]2(OC(=O)c3ccccc3NC(C)=O)CC[C@H](OC)[C@@]34[C@@H]2C[C@@H]([C@@H]13)[C@@]1(O)C[C@H](OC)[C@H]2C[C@@H]4[C@]1(O)[C@H]2OC ?
Resp: 0

Req: Which outcome did this test record for the compound CC(=O)O[C@@]12CO[C@@H]1C[C@H](O)[C@@]1(C)C(=O)[C@H](O)C3=C(C)[C@@H](OC(=O)[C@H](O)[C@@H](NC(=O)c4ccccc4)c4ccccc4)C[C@](O)([C@@H](OC(=O)c4ccccc4)[C@H]21)C3(C)C ?
Resp: 0

Req: Which outcome did this test record for the compound C=C(C)[C@@H]1CCC(C)=C[C@H]1c1c(OC)cc(C)cc1OC ?
Resp: 0

Req: Which outcome did this test record for the compound CNC(=O)Oc1ccc2c(c1)C1(C)CCN(C)C1N2C (centres undefined) ?
Resp: 0

Req: Which outcome did this test record for the compound COc1ccc2c(c1)C[C@H](N)C2 ?
Resp: 0

Req: Which outcome did this test record for the compound CC1OC(OC2C=C3CCC4C(CCC5(C)C(c6ccc(=O)oc6)CCC45O)C3(C)CC2)C(O)C(O)C1O (centres undefined) ?
Resp: 1

Req: Which outcome did this test record for the compound C[C@@H]1CN([C@H](C)CO)C(=O)c2c(c3ccccc3n2C)-c2ccccc2CO[C@@H]1CN(C)C(=O)Oc1ccccc1 ?
Resp: 0

Req: Which outcome did this test record for the compound NC1CC1c1ccccc1.O=S(=O)(O)O (centres undefined) ?
Resp: 0

Req: Which outcome did this test record for the compound COc1cc(C2c3cc4c(cc3C(O)C3COC(=O)C23)OCO4)cc(OC)c1OC (centres undefined) ?
Resp: 0

Req: Which outcome did this test record for the compound C[C@@H]1CN([C@@H](C)CO)C(=O)c2c(c3ccccc3n2C)-c2ccccc2CO[C@@H]1CN(C)C(=O)Oc1ccccc1 ?
Resp: 0

====

Test system: HSkMC
method_summary: cytotoxicity call (relative viability < 0.9)
test_context: 10 µM
The campaign covered roughly 39,000 compounds. About 1,500 (3.8%) were called active. The sample as a whole holds a higher share of actives than the screen did.
property_name: cytotoxicity call

Recorded results for 5 compounds are shown here.
Entry O/N=C1\CN2CCC1CC2 , tested on HSkMC, has a reported cytotoxicity call of inactive

Entry Cc1cc(N(C)C)ccc1C[C@@H](C)N , tested on HSkMC, has a reported cytotoxicity call of inactive

Entry O=C1[O][Pt]2([NH][C@@H]3CCCC[C@H]3[NH]2)[O]C1=O , tested on HSkMC, has a reported cytotoxicity call of active

Entry O=C(O)C=CC(=O)O.c1ccc2nc(N3CCNCC3)ccc2c1 , tested on HSkMC, has a reported cytotoxicity call of inactive

Entry CC(C)n1cnnc1CCN , tested on HSkMC, has a reported cytotoxicity call of inactive

Next:
Entry COC(=O)[C@@H]1[C@@H](CO)[C@@H]2Cn3c(ccc(C4=CCCC4)c3=O)[C@H]1N2S(=O)(=O)c1cn(C)cn1 , tested on HSkMC, has a reported cytotoxicity call of inactive

Entry CC(=O)O.Cc1cc2c(C(C)C)c(O)c(O)c(C=O)c2c(O)c1-c1c(C)cc2c(C(C)C)c(O)c(O)c(C=O)c2c1O , tested on HSkMC, has a reported cytotoxicity call of inactive

Entry O=C1[O][SbH]23[O]C(=O)[C@H]([O]2)[C@H]2[O][SbH]4([O]C(=O)[C@H]([O]4)[C@H]1[O]3)[O]C2=O , tested on HSkMC, has a reported cytotoxicity call of active

Entry C[C@H](N)[C@H](O)c1ccc(O)c(O)c1 , tested on HSkMC, has a reported cytotoxicity call of inactive

Entry CC(=O)OC1CC2C(C)(C)C(=O)C=CC2(C)C2CCC3(C)C(=CC(=O)OC3c3ccoc3)C12C (stereo not given) , tested on HSkMC (human skeletal muscle cells), has a reported cytotoxicity call of inactive
